Test: Drug distribution in CB17:SCID mouse xenografted with human VCaP cells assessed as liver to plasma ratio at 20 mg/kg, po measured at 6 hrs by LCMS analysis
Type: ADME, organism-based
recorded.metric: Kp at 6 h
Answer with the value's number alone.

Using the record for CN(c1ccc(C#N)c(Cl)c1)[C@H]1CC[C@H](NC(=O)c2ccc(N3CCN(C4CN(c5ccc6c(c5)C(=O)N(C5CCC(=O)NC5=O)C6=O)C4)CC3)cc2)CC1 (stereo partly specified) , report its Kp at 6 h.
26.2

---

Assay: Drug distribution in prostate gland of CB17:SCID mouse xenografted with human VCaP cells at 20 mg/kg, po measured at 24 hrs by LCMS analysis
Format: ADME, organism-based
Details: read-out: Drug uptake
In this section, each of the molecules is paired with its reported concentration at 24 h.
Write the number in ng/g without appending the unit.

Answered cases to consult:
INSERT INTO results (molecule, recorded_metric, unit_tag, endpoint_result) VALUES
  ('CN(c1ccc(C#N)c(Cl)c1)[C@H]1CC[C@H](NC(=O)c2ccc(N3CCN(C4CN(c5ccc6c(c5)C(=O)N(C5CCC(=O)NC5=O)C6=O)C4)CC3)cc2)CC1 (some centres undefined)', 'concentration at 24 h', 'ng/g', 107),
  ('CN(c1ccc(C#N)c(Cl)c1)[C@H]1CC[C@H](NC(=O)c2ccc(N3CCN(C4CCN(c5ccc6c(c5)C(=O)N(C5CCC(=O)NC5=O)C6=O)CC4)CC3)cc2)CC1 (some centres undefined)', 'concentration at 24 h', 'ng/g', 83),
  ('CN(c1ccc(C#N)c(Cl)c1)[C@H]1CC[C@H](NC(=O)c2ccc(N3CC(N4CCN(c5ccc6c(c5)C(=O)N(C5CCC(=O)NC5=O)C6=O)CC4)C3)cc2)CC1 (some centres undefined)', 'concentration at 24 h', 'ng/g', 123);

Now let's try a different one.
Query (molecule): CN(c1ccc(C#N)c(Cl)c1)[C@H]1CC[C@H](NC(=O)c2ccc(N3CCC(N4CCN(c5ccc6c(c5)C(=O)N(C5CCC(=O)NC5=O)C6=O)CC4)CC3)cc2)CC1 (some centres undefined) ; field requested: concentration at 24 h
4
